Each entry below carries its recorded IC50.
Molecular target: TDO (Homo sapiens)
Sequence (P48775 whole entry): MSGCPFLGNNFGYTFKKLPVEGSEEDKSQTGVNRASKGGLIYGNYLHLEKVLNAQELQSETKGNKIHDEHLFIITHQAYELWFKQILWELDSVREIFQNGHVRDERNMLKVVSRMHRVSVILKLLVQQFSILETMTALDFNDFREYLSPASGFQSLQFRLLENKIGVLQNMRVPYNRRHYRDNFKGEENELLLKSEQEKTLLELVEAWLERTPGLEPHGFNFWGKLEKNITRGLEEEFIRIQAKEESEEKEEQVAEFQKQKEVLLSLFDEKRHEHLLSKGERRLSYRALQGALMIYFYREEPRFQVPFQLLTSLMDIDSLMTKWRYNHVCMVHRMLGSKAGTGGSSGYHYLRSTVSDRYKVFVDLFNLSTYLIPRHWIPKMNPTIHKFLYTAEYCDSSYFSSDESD
Experiment: A172 kynurenine cell-based assay
Parameters: This assay utilised cancer cells which expressed either TDO or IDO; endogenous in cells; host or cells: A172 (human glioblastoma)
Conditions: A172 human glioblastoma cells, 48 hours, 500 μM L-tryptophan; read-out: A172 Kynurenine cell based assay pIC50 (converted)

O=S(=O)(Cc1ccccc1)N1CCC(c2cc(Cl)cc3[nH]ncc23)CC1 [Compound 115] : < 3.16 µM

*Q* Reported IC50 for CNC(=O)C1CCN(c2cc(Cl)cc3[nH]ncc23)C1 (stereo not drawn) [Compound 298] : what is it?
*A* 3.24 to 31.6 µM

*Q* Reported IC50 for Cc1nc2c([nH]1)CN(c1cc(Cl)cc3[nH]ncc13)CC2 [Compound 211] : what is it?
*A* 3.24 to 31.6 µM

*Q* Reported IC50 for O=C(C1COC1)N1CCC(c2cc(Cl)cc3[nH]ncc23)CC1 [Compound 205] : what is it?
*A* < 3.16 µM

*Q* Reported IC50 for C[C@@H]1CN(S(C)(=O)=O)CCN1c1cc(C(F)(F)F)cc2[nH]ncc12 [Compound 208] : what is it?
*A* < 3.16 µM

*Q* Reported IC50 for CS(=O)(=O)NCc1ccc(-c2cc(Cl)cc3[nH]ncc23)cc1 [Compound 292] : what is it?
*A* < 3.16 µM

*Q* Reported IC50 for CCN1C(=O)NC2(CCN(c3cc(Cl)cc4[nH]ncc34)CC2)C1=O [Compound 315] : what is it?
*A* < 3.16 µM

*Q* Reported IC50 for CNC(=O)CN1CCN(c2cc(Cl)cc3[nH]ncc23)CC1(C)C [Compound 413] : what is it?
*A* < 3.16 µM

*Q* Reported IC50 for CN(c1ccc(-c2cc(Cl)cc3[nH]ncc23)cc1)S(C)(=O)=O [Compound 239] : what is it?
*A* < 3.16 µM

---

Each entry below carries its recorded IC50.
Target: IDO (Homo sapiens, UniProt P14902)
Sequence (P14902 whole entry): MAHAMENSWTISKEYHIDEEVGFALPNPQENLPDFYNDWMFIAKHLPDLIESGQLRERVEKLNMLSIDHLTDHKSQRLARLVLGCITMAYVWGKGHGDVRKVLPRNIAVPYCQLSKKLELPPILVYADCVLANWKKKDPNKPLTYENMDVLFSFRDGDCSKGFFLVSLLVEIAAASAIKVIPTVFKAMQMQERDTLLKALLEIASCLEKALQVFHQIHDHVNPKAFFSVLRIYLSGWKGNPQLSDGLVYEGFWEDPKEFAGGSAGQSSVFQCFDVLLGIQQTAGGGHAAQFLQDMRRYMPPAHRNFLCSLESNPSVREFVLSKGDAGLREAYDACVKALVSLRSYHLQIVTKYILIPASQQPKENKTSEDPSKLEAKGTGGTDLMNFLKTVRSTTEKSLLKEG
Experiment: SKOV3 kynurenine cell-based assay (IDO induced by IFN-γ)
Design: IDO expression was induced in the SKOV3 cells by the addition of 500 ng/ml IFN-γ; endogenous in cells; host or cells: SKOV3 (human ovarian adenocarcinoma), induced with IFN-γ
Details: SKOV3 human ovarian adenocarcinoma cells, 500 ng/ml IFN-γ, 48 hours, 500 μM L-tryptophan; read-out: SKOV3 Kynurenine cell based assay pIC50 (converted)

Worked examples follow.
COC(=O)c1ccc(-c2cc(Cl)cc3[nH]ncc23)cc1 : 3.24 to 31.6 µM
CC(=O)N1CCC2(CC1)CN(c1cc(Cl)cc3[nH]ncc13)C2 : < 3.16 µM
CS(=O)(=O)N1CCOC2(CCN(c3cc(Cl)cc4[nH]ncc34)CC2)C1 : > 100 µM
CS(=O)(=O)N1CCN(c2cc(C3CCCC3)cc3[nH]ncc23)CC1 : 32.4 to 100 µM
COCCS(=O)(=O)N1CCN(c2cc(Cl)cc3[nH]ncc23)CC1 : 3.24 to 31.6 µM

*Q* Short answer please: IC50, IDO (Homo sapiens, UniProt P14902), entry `CC(C)(F)C(=O)N1CCN(c2cc(Cl)cc3[nH]ncc23)CC1`
*A* 3.24 to 31.6 µM

*Q* Short answer please: IC50, IDO (Homo sapiens, UniProt P14902), entry `O=C(C1COC1)N1CCN(c2cc(Cl)cc3[nH]ncc23)CC1`
*A* > 100 µM

*Q* Short answer please: IC50, IDO (Homo sapiens, UniProt P14902), entry `CNC(=O)c1ccc(C2CCN(c3cc(Cl)cc4[nH]ncc34)CC2)cc1`
*A* 3.24 to 31.6 µM

*Q* Short answer please: IC50, IDO (Homo sapiens, UniProt P14902), entry `CN(c1cc(N2CCN(S(C)(=O)=O)C(C)(C)C2)c2cn[nH]c2c1)S(C)(=O)=O`
*A* > 100 µM

*Q* Short answer please: IC50, IDO (Homo sapiens, UniProt P14902), entry `CNS(=O)(=O)N1CCN(c2cccc3[nH]ncc23)CC1`
*A* 32.4 to 100 µM

---

Target: IDO (Homo sapiens)
Assay: hIDO biochemical coupled assay
Details: 45 μM L-tryptophan, 17 minutes, room temperature; read-out: hIDO biochemical assay pIC50 (converted)
assayEndpoint: IC50

CN(C)C(=O)C1CCCN(c2cc(Cl)cc3[nH]ncc23)C1 (centres unmarked) : > 100 µM

*Q* Reported IC50 for `CS(=O)(=O)N1CCC(c2cc(C3CCCC3)cc3[nH]ncc23)CC1` : what is it?
*A* 32.4 to 100 µM

*Q* Reported IC50 for `Clc1cc(N2CCN(c3cccnc3)CC2)c2cn[nH]c2c1` : what is it?
*A* > 100 µM

*Q* Reported IC50 for `Cc1nc2c(n1C)CN(c1cc(Cl)cc3[nH]ncc13)CC2` : what is it?
*A* > 100 µM

*Q* Reported IC50 for `Clc1cc(N2CCC(c3ncco3)CC2)c2cn[nH]c2c1` : what is it?
*A* 3.24 to 31.6 µM

*Q* Reported IC50 for `CS(=O)(=O)c1ccc(-c2cc(Cl)cc3[nH]ncc23)cc1F` : what is it?
*A* 3.24 to 31.6 µM

*Q* Reported IC50 for `CC1(C)CCC(O)(c2cc(Cl)cc3[nH]ncc23)CC1` : what is it?
*A* > 100 µM

*Q* Reported IC50 for `O=C1Nc2ccccc2NC12CCN(c1cc(Cl)cc3[nH]ncc13)CC2` : what is it?
*A* 32.4 to 100 µM

*Q* Reported IC50 for `CS(=O)(=O)NCCn1cc(-c2cc(Cl)cc3[nH]ncc23)cn1` : what is it?
*A* > 100 µM

*Q* Reported IC50 for `Cc1nc2c([nH]1)CN(c1cc(C(F)(F)F)cc3[nH]ncc13)CC2` : what is it?
*A* > 100 µM

*Q* Reported IC50 for `Cc1nc2c(n1C)CCN(c1cc(Cl)cc3[nH]ncc13)C2` : what is it?
*A* > 100 µM

*Q* Reported IC50 for `COC(=O)C1CCN(c2cc(Cl)cc3[nH]ncc23)CC1` : what is it?
*A* 3.24 to 31.6 µM

*Q* Reported IC50 for `COC(=O)c1ccc(-c2cc(Cl)cc3[nH]ncc23)cc1` : what is it?
*A* > 100 µM

*Q* Reported IC50 for `Clc1cc(N2CCC(n3cccn3)CC2)c2cn[nH]c2c1` : what is it?
*A* < 3.16 µM

*Q* Reported IC50 for `CC1(C)CN(c2cc(Cl)cc3[nH]ncc23)CCN1S(N)(=O)=O` : what is it?
*A* < 3.16 µM

*Q* Reported IC50 for `Cn1ccnc1CN1C(=O)NC2(CCN(c3cc(Cl)cc4[nH]ncc34)CC2)C1=O` : what is it?
*A* < 3.16 µM

*Q* Reported IC50 for CC(=O)N1CCC(c2cc(Cl)cc3[nH]ncc23)CC1(C)C (centres unmarked) : what is it?
*A* < 3.16 µM

*Q* Reported IC50 for `CN(C)CCN1C(=O)NC2(CCN(c3cc(Cl)cc4[nH]ncc34)CC2)C1=O` : what is it?
*A* < 3.16 µM

---

Target: UniProt P48775
Assay: hTDO biochemical coupled assay
Details: 330 μM L-tryptophan, 17 minutes, room temperature; read-out: hTDO biochemical assay pIC50 (converted)
Each entry below carries its recorded IC50.

Worked examples follow.
Clc1cc(N2CCC(c3ncco3)CC2)c2cn[nH]c2c1 [Compound 429] : < 3.16 µM
O=C1CCC2(CCN(c3cc(Cl)cc4[nH]ncc34)CC2)N1 [Compound 215] : < 3.16 µM

*Q* Reported IC50 for OC(c1ccccc1)c1cc(Cl)cc2[nH]ncc12 (centres unmarked) [Compound 271] : what is it?
*A* < 3.16 µM

*Q* Reported IC50 for CN(C)CCN1C(=O)NC2(CCN(c3cc(Cl)cc4[nH]ncc34)CC2)C1=O [Compound 392] : what is it?
*A* < 3.16 µM

*Q* Reported IC50 for Cn1cc(-c2cc(Cl)cc3[nH]ncc23)cn1 [Compound 366] : what is it?
*A* 3.24 to 31.6 µM

---

Biological target: IDO (Homo sapiens, UniProt P14902)
Test: SKOV3 kynurenine cell-based assay (IDO induced by IFN-γ)
Design: IDO expression was induced in the SKOV3 cells by the addition of 500 ng/ml IFN-γ; endogenous in cells; host or cells: SKOV3 (human ovarian adenocarcinoma), induced with IFN-γ
Details: SKOV3 human ovarian adenocarcinoma cells, 500 ng/ml IFN-γ, 48 hours, 500 μM L-tryptophan; read-out: SKOV3 Kynurenine cell based assay pIC50 (converted)
assayEndpoint: IC50

Worked examples follow.
CS(=O)(=O)N1CCN(c2cc(Cl)cc3c(N)noc23)CC1 : 3.24 to 31.6 µM
CS(=O)(=O)N1CCN(c2cccc3[nH]ncc23)CC1 : 32.4 to 100 µM
O=C1NC2(CCN(c3cc(Cl)cc4[nH]ncc34)CC2)C(=O)N1CC1CCCCC1 : < 3.16 µM
CC(=O)N1CCN(c2ccc3[nH]ncc3c2)CC1 : > 100 µM

*Q* Reported IC50 for `CS(=O)(=O)N1CCC(Oc2cc(Cl)cc3[nH]ncc23)CC1` : what is it?
*A* 3.24 to 31.6 µM

Data provenance: patent US10590086B2
